# EXPERIMENT NOTES: yeast display, Sf9 membrane polyspecificity reagent, FACS + sequencing; frameworks hold sequencing errors
READOUT NAME: polyreactivity (PSR sort gate)

SEQUENCE DATA	REPORTED
QVQLVESGGGLVQAGGSLRLSCAASGGTFQAYAMGWYSQAPGKDREFDAAITAGGGSTSYADSVKGRFTISRDNAKNTVDLQLNRLKPEDSAAYYCAVDGGFPVTDYDYWGQGTQVTVST	low polyreactivity
QVQLVESGGGLVQAGGSLRLSCAASGRTFKHYAMGWYRPAPGKERELVATITNTGGRTNYADSVKGRFTISRDNAKNTVYLQMYSLKPEDTAVYYCNRVNDYYRPGGRPFGIFDYWGQGTQVTVSS	low polyreactivity
QVQLVESGGGLVQAGGRLRLSCAASGSTFYQYAMGWYRQAPGKERELVAAISKSGGSTYYADSVKGRFTISRDNAKNTVYLQMNSLKPEDTAVYYCATRWIKGRKMVYWGQGTQVTVSS	high polyreactivity
QVQLVESGGGLVQAGGSLRLSCAASGSTSVQYAMGWYRQAPGKERELVAAIDRSGGSTSYADSVKGRFTISRYNAKNTVYLQMNSLKPEDTAVYYCNADPVRSTYSYDYWGQGTQVTVSS	low polyreactivity
QVQLVESGGGLVQAGGSLRLSCAASGFIYWYAMGWSRQAPGKERELVAAITWSGGSTYADSVKGRFTISRDNAKNTVYLQMNSLKPEDTAVYYCAADKYSQWSSHTRVRYDYWGQGTQVTVSS	low polyreactivity
QVQLVESGGGLVQAGGSLRLSCAASGSTFESNAMGWYRQAPGKERELVASISGSGGSTFYADSVKGRFTISRDNAKNTVYLQMNSLKPEDTAVYYCAAYKEPYYEEYGYWGQGTQVTVSS	low polyreactivity
QVQLVESGAGLVQAGGSLRLSCAASVSTLDLYAMGWYRQAPGKERELVAYISWSGGSTYYADSVKGRFTISRDNAKNTVYLQMNSLKPEDTAVYYCAAGNITPYRYYHGYYQSIYDYWGQGTQVTVSS	low polyreactivity
QVQLVESGGGLVQAGGSLRLSCAASGRTFLVNAMGWYRQAPGKERELVAAISSVGSTNYADSVKGRFTISRDNAKNTVYLQMNSLKPEVTSVYYCAKDAEYDCGQGTQVTVSS	low polyreactivity

# query: polyreactivity (PSR sort gate) of entry `QVQLVESGGGLVQAGGSLRLSCAASGITFGIYAMGWYRQAPGKERELVAAIDGSDGSTYYADSVKGRFTISRDNAKNTVYLQMKSLKPEDTAVYYCNAENGYSWDVFSDYWGQGTQVTVSS`
low polyreactivity

# query: polyreactivity (PSR sort gate) of entry `QVQRVESAGGLVQAGGSLRLSCAASGFILDNYAMGWYRQAPGKERELVAAISGSGGSTYYADSVKGRFTISRDNAKNTVYLQMNSLKPEDTAVYYCNRDRLLRQYDYWGQGTQVTVSS`
high polyreactivity

# query: polyreactivity (PSR sort gate) of entry `QVQLVESGGGLVQAGGSLRLSCAASGRIIRIYTMGWYRQARGKERELVAAITKSGGSTSYADSVKGRFTISRDNAKNTVYLQMNSLKPEDTAVYYCNAKGWTRPPGYDYWGQGTQVTVSS`
high polyreactivity

* * *

# EXPERIMENT NOTES: yeast display, Sf9 membrane polyspecificity reagent, FACS + sequencing; frameworks hold sequencing errors
READOUT NAME: polyreactivity (PSR sort gate)

Some solved cases for reference:
SEQUENCE DATA	READOUT NAME	REPORTED
QVQLVESGGGLVQAGGSLRLSCAASGRILHFYAMGWYRQAPGKERELVAAISKSGGSTYYADSVKGRFTISRDNAKNTVYLQMNSLKPEDTAVYYCAASFIRRGSYSTTSAPGRYYWGQGTQVTVSS	polyreactivity (PSR sort gate)	high polyreactivity
QVQLVESGGGLVQAGGSLRLSCAAAGRIFGINALGWYRQAPGKERELVAAISWRSGSTYYADSVKGRFTISRDNAKNTVYLQMNSLKPEATAVYYCAARYFVRNYYQNDYWGQGTQVTVSS	polyreactivity (PSR sort gate)	low polyreactivity
QVQLVESGGGLVQAGGSLRLSCAASGLIFYDNMGWYRQAPGKERELVAAISSSGGSTSYADSVKGRFTISRDNAKNTVYLQMNSLKPEDTAVYYCAAQYPAYYTNSYWGQGTQVTVSS	polyreactivity (PSR sort gate)	low polyreactivity
QVQLVESGGGLVQAGGSLRLSCAASGFIFFLYAMGWYRQAPGKERELVARISGGGDSTSYADSVKGRFTISRDNAKNTVYLQMNSLKPEDTAVYYCAADVWGSGGELGYWGQGTQVTVSS	polyreactivity (PSR sort gate)	low polyreactivity

Let's switch to this sequence now.
# query: polyreactivity (PSR sort gate) of entry `QVQLVESGGRLVQAGGSLRLSCAASGNIFTVNAMGWYRQAPGKERELVAAISVGDGTTYYADSVKGRFTISRDNAKNTVYLQMNSLKPEDTAVYYCAAEGYTDYEYWGQGTQVTVSS`
high polyreactivity

* * *

# EXPERIMENT NOTES: yeast display, Sf9 membrane polyspecificity reagent, FACS + sequencing; frameworks hold sequencing errors
READOUT NAME: polyreactivity (PSR sort gate)

Some solved cases for reference:
SEQUENCE DATA	REPORTED
QGQLVESGGGLVQAGGSLRLSCAASGSIFYWYAMGWYRQAPGKERELVAVISTGTSTKYADSVKGRFTISRDNAKNTVYLQMNSLKPEDTAVYYCNADPVGPKYDYWGQGTQVTVSS	low polyreactivity
QVQLVESGGGLVQAGGSLRLSCAASGRIFWVYTMGWYRQAPGKERELVAAITSADSTNYADSVKGRFTISRDNAKNTVYLQMNSLKAEDTAVYYCAARLARDQVREWDERYYYWGQGTQVTVSS	low polyreactivity
QVQLVESGGGLVQAGGSLRLSCAASGYTFDRYAMGWYRQAPGKERELVAVISRSGATTYYADSVKGRFTISRDNAKNTVYLQMNSLKPEDTAVYYCAARNPSGKGRYDYWGQGTQVTVSS	high polyreactivity
QVQLVESGGGLVQAGGSLRLSCAASGNIFVWNDMGWYRQAPGKERELVAAISLSGSSTYYADSVKGRFTISRDNAKNTVYLQMNSLKPEDTAVYYCATTRRVPGEYWGQGTQVTVSS	high polyreactivity
QVQLVESGGGLVQAGGSLRLSCAGSGHIFRQYAMGWYRQAPGKERELVAAITSGGSTYYADSVKGRFTISRDNAKNTVYLQMNSLKPEDTAVYYCATRPGGDRPIGYDYWGQGTQVTVSS	low polyreactivity

# query: polyreactivity (PSR sort gate) of entry `QVQLVESGGGLVQAGGSLRLSCAASGSIFTLNAMGWYRQAPGKEREFVAAITWSGGSTYYADSVKGRFTISRDNAKNTVYLQMNSLKPEDTAVYYCNVEPVDRWYYKYDYWGQGTQVTVSS`
low polyreactivity

# query: polyreactivity (PSR sort gate) of entry `QGQHVESGGGLVQAGGSLRLSCAASGSIFAAYAMGWYRQATGKERELVAPIDRGGSTDYADSVKGRFTISRDNAKNTVFLPMNSLKPEDTAVYYCDKGYDYYVRRYYYWGQGTQVTGSS`
high polyreactivity

# query: polyreactivity (PSR sort gate) of entry `QVQLVESGGGLVQAGGSLRLSCAASGIIFGRYPMGWYRQAPGKERELVAAITSSGITYYADSVKGRFTISRDNAKNTVYLQMNSLKPEDTAVYYCNADYSIPGYYWPYDYWGQGTQVTVSS`
low polyreactivity

* * *

# EXPERIMENT NOTES: yeast display, Sf9 membrane polyspecificity reagent, FACS + sequencing; frameworks hold sequencing errors
READOUT NAME: polyreactivity (PSR sort gate)

Some solved cases for reference:
SEQUENCE DATA	polyreactivity (PSR sort gate)
QVQLVESGGGLVQAGGSLRLSCAASGRTFVYNAMGWYRQAPGKERELVAAISSDGASTYYADSVKGRFTISRDNAKNTVYLQMNSLKPEDTAVYYCAADFSYYSYEHYYWGQGTKVTVSS	low polyreactivity
QVQLVESGGGLVQAGRSLRLSCAASGIIFEWNGMGWYRQAPGKERELVAALPWSGGSTYYADSVKGRFTISRDNAKNTVYLQMNSLKPEDTAVYYCNAYWKDDFEDGPGRRGMDYWGQGSQVTVSS	low polyreactivity
QVQLVESGGGLVQAGGSLRLSCAASGLTFIGYVMGWYRQAPGKERELVAAISGSGGSTYYADSVKGRFTISRDNAKNTVYLQMNSLKPEDTAVYYCAARSRVLTRYDYWGQGTQVTVSS	high polyreactivity
QVQLVESGVGLVQAGGSLRLSCAASGLTFDYNAMGWYRQAPGKERELVARISRSGGTTYYADSVKGRFTISRDNAKNTVYLQMNSLKPEDTAVYYCAAERYYVGAYGYWGQGTQVTVSS	high polyreactivity
QVQLVESGGGLVQAGGSLRLSCAASGRTFLYYAMGWYRQAPGKERELVAAIRRGSSTYYADSVKGRFTISRDNAKNTVYLQMNSLKPEDTAVYYCAARGRYRIGPGRYGKRYDYWGQGTQVTVSS	high polyreactivity
QVQLVESGGGLDQAGGSLRLICAASGFIFVWYAMGWYRPAPGKERELVAAISRRGGGTYYADSVKGRFTISRDNAKNTVYLQMNSLKPEDTAVYYCAAGSYYRYGYDFNYWGQGTQVTVSS	high polyreactivity

Let's switch to this sequence now.
# query: polyreactivity (PSR sort gate) of entry `QVQLVESGGGLVQAGGSLRLSCAASGRTFAGNAMGWYRQAPGKERELVASISSSAGRTYYADSVKGRFTISRDNAKNTVYLQMNSLKPEDTAVDYCAARGGYVSTWTRFSKYNYWGQGTQVTVSS`
high polyreactivity
